# target.desc: Opioid receptor (Rattus norvegicus, UniProt P33533+P34975+P33535)
# Assay type: cell membranes, Brain, Membrane
Give measured IC50 for each item. Keep answers brief.
# number then unit; no other words

Reference set, count: 2
compound.structure.string: COc1ccc2c(c1OC)[C@]13CCN(C)[C@H](C2)[C@]1(O)CCC(=O)C3
experimental.endpoint: IC50
recorded.value: 1.2 nM
//
compound.structure.string: COc1ccc2c(c1O)[C@]13CCN(C)[C@H](C2)[C@]1(OC)CCC(=O)C3
experimental.endpoint: IC50
recorded.value: 11 nM

**Q:** What value of measured IC50 is listed for COc1cccc2c1[C@]13CCN(C)[C@H](C2)[C@]1(OC)CCC(=O)C3 ?
**A:** 3.5 nM
